# study.system: Hemagglutinin of influenza A/Solomon Islands/3/06 (H1N1) on whole virions (Influenza A virus A/Solomon …)
# protocol.notes: cell-based or functional assay
% Neutralization values, listed per item
parameter.measured: % Neutralization (%)

>  <binder>
TCN-530 (5248_H10a) (antibody, V domains shown) VH: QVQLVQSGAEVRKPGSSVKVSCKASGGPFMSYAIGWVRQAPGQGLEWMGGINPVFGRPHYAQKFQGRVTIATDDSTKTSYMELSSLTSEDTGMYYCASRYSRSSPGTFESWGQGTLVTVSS VL: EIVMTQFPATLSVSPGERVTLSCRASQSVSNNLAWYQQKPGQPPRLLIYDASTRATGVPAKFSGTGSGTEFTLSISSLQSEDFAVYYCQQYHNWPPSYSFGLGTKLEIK

>  <result>
64

$$$$
>  <binder>
TCN-555 (5246_L16) (antibody, V domains shown) VH: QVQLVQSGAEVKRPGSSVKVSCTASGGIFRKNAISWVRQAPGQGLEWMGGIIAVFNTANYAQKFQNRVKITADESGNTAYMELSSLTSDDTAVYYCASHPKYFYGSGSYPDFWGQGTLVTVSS VL: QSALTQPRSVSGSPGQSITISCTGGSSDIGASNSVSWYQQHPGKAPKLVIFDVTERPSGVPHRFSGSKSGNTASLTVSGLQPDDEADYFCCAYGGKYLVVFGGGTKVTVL

>  <result>
48

$$$$
>  <binder>
TCN-545 (5082_I15) (antibody, V domains shown) VH: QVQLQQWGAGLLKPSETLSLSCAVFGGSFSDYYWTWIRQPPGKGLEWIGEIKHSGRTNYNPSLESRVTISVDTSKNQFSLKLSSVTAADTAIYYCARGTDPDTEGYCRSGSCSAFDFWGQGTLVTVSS VL: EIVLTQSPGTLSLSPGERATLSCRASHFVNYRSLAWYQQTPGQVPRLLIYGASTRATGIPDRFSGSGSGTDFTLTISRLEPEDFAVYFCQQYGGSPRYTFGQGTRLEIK

>  <result>
98

$$$$
>  <binder>
TCN-540 (5060_F05) (antibody, V domains shown) VH: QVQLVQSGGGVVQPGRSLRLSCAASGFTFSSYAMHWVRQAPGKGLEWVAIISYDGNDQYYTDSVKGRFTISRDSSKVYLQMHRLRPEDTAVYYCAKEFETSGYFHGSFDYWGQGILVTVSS VL: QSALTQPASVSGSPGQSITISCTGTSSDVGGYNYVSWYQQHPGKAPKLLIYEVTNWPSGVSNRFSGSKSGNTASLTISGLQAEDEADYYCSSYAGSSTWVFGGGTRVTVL

>  <result>
100

$$$$
>  <binder>
TCN-536 (5095_N01) (antibody, V domains shown) VH: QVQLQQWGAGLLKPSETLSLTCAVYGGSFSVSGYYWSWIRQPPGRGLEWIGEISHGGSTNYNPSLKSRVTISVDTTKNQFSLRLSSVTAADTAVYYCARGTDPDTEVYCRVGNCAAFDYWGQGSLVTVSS VL: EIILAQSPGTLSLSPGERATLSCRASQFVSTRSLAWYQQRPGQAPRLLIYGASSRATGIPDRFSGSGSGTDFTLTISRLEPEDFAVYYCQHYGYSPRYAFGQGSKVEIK

>  <result>
75

$$$$

The measured values listed here are drawn from patent US20150104459A1.
